- Test system: Escherichia coli TOP10
- protocol-summary: shrunken log2 fold change of peptide-encoding DNA abundance (4.5 h post-induction vs induction); higher = less antimicrobial activity (less host growth inhibition)
- test-conditions: time post-induction: 4.5 h; library: site-saturation at positions 5, 18, 19, 20
Consider the reported shrunken log2 fold change of an entry and match it to a band in bottom range = under -0.2, center range = from -0.2 up to -0.04, top range = -0.04 and over

{"input-sequence": "RRIRYRPPRLPRPRPRPCTSPRP", "assigned-category": "bottom range"}
{"input-sequence": "RRIRNRPPRLPRPRPRPQDHPRP", "assigned-category": "bottom range"}
{"input-sequence": "RRIRERPPRLPRPRPRPSPMPRP", "assigned-category": "center range"}
{"input-sequence": "RRIRTRPPRLPRPRPRPGTDPRP", "assigned-category": "bottom range"}
{"input-sequence": "RRIRRRPPRLPRPRPRPRAHPRP", "assigned-category": "top range"}
{"input-sequence": "RRIRYRPPRLPRPRPRPTHWPRP", "assigned-category": "top range"}
{"input-sequence": "RRIRTRPPRLPRPRPRPAHCPRP", "assigned-category": "center range"}
{"input-sequence": "RRIRIRPPRLPRPRPRPLVGPRP", "assigned-category": "center range"}
{"input-sequence": "RRIRFRPPRLPRPRPRPQAWPRP", "assigned-category": "top range"}

----------
- Test system: Escherichia coli TOP10;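 note: peptides expressed intracellularly from a pBAD plasmid library in pooled LB shake-flask culture, induced with 0.3% L-arabinose, DNA abundance read by NGS, three biological replicates, DESeq2 with apeglm shrinkage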
- protocol-summary: shrunken log2 fold change of peptide-encoding DNA abundance (4.5 h post-induction vs induction); higher = less antimicrobial activity (less host growth inhibition)
- test-conditions: time post-induction: 4.5 h; library: site-saturation at positions 5, 18, 19, 20
readout-type: shrunken log2 fold change

{"input-sequence": "RRIRYRPPRLPRPRPRPKMNPRP", "study-system": "Escherichia coli TOP10", "measured-number": -0.616}
{"input-sequence": "RRIRKRPPRLPRPRPRPGQEPRP", "study-system": "Escherichia coli TOP10", "measured-number": 0.053}
{"input-sequence": "RRIRKRPPRLPRPRPRPREHPRP", "study-system": "Escherichia coli TOP10", "measured-number": 0.0968}
{"input-sequence": "RRIRERPPRLPRPRPRPWCTPRP", "study-system": "Escherichia coli TOP10", "measured-number": -0.391}
{"input-sequence": "RRIRQRPPRLPRPRPRPHRRPRP", "study-system": "Escherichia coli TOP10", "measured-number": -0.185}
{"input-sequence": "RRIRPRPPRLPRPRPRPPWYPRP", "study-system": "Escherichia coli TOP10", "measured-number": -0.195}
{"input-sequence": "RRIRARPPRLPRPRPRPPCVPRP", "study-system": "Escherichia coli TOP10", "measured-number": 0.342}
{"input-sequence": "RRIRNRPPRLPRPRPRPCPHPRP", "study-system": "Escherichia coli TOP10", "measured-number": -0.01}
{"input-sequence": "RRIRDRPPRLPRPRPRPKFAPRP", "study-system": "Escherichia coli TOP10", "measured-number": -0.0673}
{"input-sequence": "RRIRHRPPRLPRPRPRPRYWPRP", "study-system": "Escherichia coli TOP10", "measured-number": 0.319}
{"input-sequence": "RRIRKRPPRLPRPRPRPCCLPRP", "study-system": "Escherichia coli TOP10", "measured-number": -0.0964}
{"input-sequence": "RRIRERPPRLPRPRPRPMLDPRP", "study-system": "Escherichia coli TOP10", "measured-number": 0.0349}
{"input-sequence": "RRIRSRPPRLPRPRPRPTCPPRP", "study-system": "Escherichia coli TOP10", "measured-number": 0.0454}
{"input-sequence": "RRIRNRPPRLPRPRPRPMHQPRP", "study-system": "Escherichia coli TOP10", "measured-number": -0.19}
{"input-sequence": "RRIRNRPPRLPRPRPRPKMAPRP", "study-system": "Escherichia coli TOP10", "measured-number": -0.00757}
{"input-sequence": "RRIRGRPPRLPRPRPRPCRFPRP", "study-system": "Escherichia coli TOP10", "measured-number": 0.116}
{"input-sequence": "RRIRHRPPRLPRPRPRPNKSPRP", "study-system": "Escherichia coli TOP10", "measured-number": -0.252}
{"input-sequence": "RRIRYRPPRLPRPRPRPFVTPRP", "study-system": "Escherichia coli TOP10", "measured-number": -0.156}
{"input-sequence": "RRIRIRPPRLPRPRPRPQICPRP", "study-system": "Escherichia coli TOP10", "measured-number": -0.0396}
{"input-sequence": "RRIRARPPRLPRPRPRPNHLPRP", "study-system": "Escherichia coli TOP10", "measured-number": -0.000432}
{"input-sequence": "RRIRTRPPRLPRPRPRPYNIPRP", "study-system": "Escherichia coli TOP10", "measured-number": -0.131}
{"input-sequence": "RRIRHRPPRLPRPRPRPEKTPRP", "study-system": "Escherichia coli TOP10", "measured-number": 0.115}
{"input-sequence": "RRIRARPPRLPRPRPRPIWDPRP", "study-system": "Escherichia coli TOP10", "measured-number": 0.264}
{"input-sequence": "RRIRQRPPRLPRPRPRPSFDPRP", "study-system": "Escherichia coli TOP10", "measured-number": 0.182}
{"input-sequence": "RRIRFRPPRLPRPRPRPFVRPRP", "study-system": "Escherichia coli TOP10", "measured-number": -0.0733}
